# measured.on: T1, NC2 peptide … / HLA-A*02:01 complex (human)
# T1 construct: whole, on cells; On pulsed T2 cells; also presented on JMN cells (HLA-A*02)
# protocol.summary: FACS, scFv phage on T2 cells loaded with single peptide
measured.endpoint: binding result

{"binder": "Clone 19 scFv phage clone (Clone 19 scFv) (scFv) scFv: NFMLTQPHSVSESPGKTVTISCVRSSGSVASEFVQWYQQRPGHAPTLVIYNDFQRPSGVPDRFSGSIDKSSNSASLTISGLKAEDEADYYCQSYDQSSSIVFGGGTKLTVLGSRGGGGSGGGGSGGGGSLEMAEVQLVQSGAEVKKPGESLKISCKGSGYSFTTYWIGWVRQMPGKGLEWMGIIYPGDSDTTYSPSFQGQVTISADKSLSIAYLQWSSLKASDTAMYYCARYGGQYFWSDSFDSWGQGTLVTVSS", "measured.endpoint": "binding result", "obs.value": "no binding"}
{"binder": "Clone 18 scFv phage clone (Clone 18 scFv) (scFv) scFv: QSVLTQPPSVSVAPGQKVTISCSGSSSNIGNNYVSWYQQLPGTAPKLLIYDNNKRPSGIPDRFSGSKSGTSATLGITGLQTGDEADYYCQSYDVYNMTSVFGGGTKLTVLGSRGGGGSGGGGSGGGGSLEMAQMQLVQSGAEVKKPGSSVKVSCKASGGTFSSYAISWVRQAPGQGLEWMGGIIPIFGTANYAQKFQGRVTITADESTSTAYMELSSLRSDDTAVYYCARGFSSWPGIDQWGQGTLVTVSS", "measured.endpoint": "binding result", "obs.value": "no binding"}
{"binder": "Clone 7 scFv phage clone (Clone 07 scFv) (scFv) scFv: QSVVTQPPSVSGAPGQRITISCTGSSSNIGAGYDVHWYQQLPGTAPKLLIFGNVNRPSGVPDRFSGSKSGTSASLAITGLQAEDEADYYCQSYDSSLSGWVFGGGTKLTVLGSRGGGGSGGGGSGGGGSLEMAQVQLQQSGAEVKKPGATVKVSCKASGYTFTSYGISWVRQAPGQGLEWMGWISAYNGNTNYAQKLQGRVTMTTDTSTSTAYMELRSLRSDDTAVYYCARMSMSEYIDYWGQGTLVTVSS", "measured.endpoint": "binding result", "obs.value": "no binding"}

Attribution: patent US20230374140A1
